Data credit: PubChem BioAssay (NCATS)

test system: GB4; assay: qHTS profiling for inhibitors of Plasmodium falciparum proliferation (AID 504749); also: nearly all actives have a fitted effect of over 60% in size; conditions: P. falciparum in erythrocytes, SYBR Green DNA, 72 h; series mostly up to 28.7 µM
Results filed as inconclusive are left out. The source made the active and inactive calls. Calls follow the shape of the dose curve; as a rule, active = well fitted inhibition curve with a large enough effect; inconclusive = small, poorly fitted or top-dose-only effect; inactive = flat fitted curve, though single readings scatter.
Tick one outcome: active, inactive

A selection of reference data follows.
compound: CC(CN(C)C)C(C)(O)Cc1ccc(Cl)cc1 (stereo not drawn)
assayed-target: GB4
assigned-label: active
--
compound: COc1cc(C(=O)NCCCCCC(=O)O)cc(OC)c1OC
assayed-target: GB4
assigned-label: inactive
--
compound: CCS(=O)(=O)CCn1c([N+](=O)[O-])cnc1C
assayed-target: GB4
assigned-label: inactive
--
compound: Cc1cc(NC(=O)C2=C(O)c3ccccc3S(=O)(=O)N2C)no1
assayed-target: GB4
assigned-label: inactive
--
compound: CNc1c2c(nn1C)CCCC2
assayed-target: GB4
assigned-label: inactive
--
compound: O=c1[nH]c(=O)c2ccccc2o1
assayed-target: GB4
assigned-label: inactive
--
compound: CCc1cccc(CC)c1NC(=O)CN(CC(=O)O)CC(=O)O
assayed-target: GB4
assigned-label: inactive
--
compound: CC(=O)Nc1ccc(OCCOCCOc2ccc(NC(C)=O)cc2)cc1
assayed-target: GB4
assigned-label: inactive
--
compound: CCCCCCCCCCOc1cc2c(=O)c(C(=O)OCC)c[nH]c2cc1OCC
assayed-target: GB4
assigned-label: active
--
compound: C=CCNC(N)=S
assayed-target: GB4
assigned-label: inactive

Input: Look up the recorded call for COc1ccc(C(=O)N2CCN(CC(=O)N3CCOCC3)CC2)cc1 in this test.
Output: inactive

Input: // return assay outcome for NS(=O)(=O)c1ccc(NC(=O)CCC(=O)O)cc1
Output: inactive

Input: Each compound tested received a call. Report the one for O=C(O)c1ccccc1OP(=O)(O)O .
Output: inactive
